# credit: ChEMBL document CHEMBL4152264

# Tested on: A549
# test-protocol: Antiproliferative activity against human A549 cells after 72 hrs by MTT assay
# Type: functional, cell-based
# assay-setup: A549, 72 h

structure-as-smiles | IC50
C/C=C/C(=O)Nc1cc2c(N3CCCc4ccccc43)ncnc2cc1OC | 8.19 µM
CN(C)C/C=C/C(=O)Nc1cc2c(N3CCc4ccccc43)ncnc2cc1O[C@@H]1CCOC1 | 1.09 µM
CC/C=C/C(=O)Nc1cc2c(N3CCc4ccccc43)ncnc2cc1OC | 2.47 µM
CN(C)C/C=C/C(=O)Nc1cc2c(N3CCCc4ccccc43)ncnc2cc1O[C@@H]1CCOC1 | 2.32 µM
COc1cc2ncnc(N3CCCc4ccccc43)c2cc1NC(=O)/C=C/CN1CCCC1 | 2.23 µM
COc1cc2ncnc(N3CCCc4ccccc43)c2cc1NC(=O)/C=C/CN1CCCCC1 | 2.88 µM
CCN(CC)C/C=C/C(=O)Nc1cc2c(N3CCCc4ccccc43)ncnc2cc1OC | 6.41 µM
O=C(/C=C/CN1CCC(CO)CC1)Nc1cc2c(N3CCc4ccccc43)ncnc2cc1O[C@@H]1CCOC1 | 3.67 µM
O=C(/C=C/CN1CCC(CO)CC1)Nc1cc2c(N3CCCc4ccccc43)ncnc2cc1O[C@@H]1CCOC1 | 5.3 µM
COc1cc2ncnc(N3CCc4ccccc43)c2cc1NC(=O)/C=C/CN1CCOCC1 | 9.25 µM
O=C(/C=C/CN1CCCC1)Nc1cc2c(N3CCCc4ccccc43)ncnc2cc1O[C@@H]1CCOC1 | 6.51 µM
C/C=C/C(=O)Nc1cc2c(N3CCc4ccccc43)ncnc2cc1OC | 8.29 µM
C=CC(=O)Nc1cc2c(N3CCc4ccccc43)ncnc2cc1O[C@@H]1CCOC1 | 9.32 µM
CCN(CC)C/C=C/C(=O)Nc1cc2c(N3CCCc4ccccc43)ncnc2cc1O[C@@H]1CCOC1 | 5.65 µM
COc1cc2ncnc(N3CCc4ccccc43)c2cc1NC(=O)/C=C/CN(C)C | 2.04 µM
O=C(/C=C/CN1CCCC1)Nc1cc2c(N3CCc4ccccc43)ncnc2cc1O[C@@H]1CCOC1 | 2.23 µM
CC(C)/C=C/C(=O)Nc1cc2c(N3CCCc4ccccc43)ncnc2cc1O[C@@H]1CCOC1 | 6.82 µM
CCC/C=C/C(=O)Nc1cc2c(N3CCCc4ccccc43)ncnc2cc1O[C@@H]1CCOC1 | 7.32 µM
CC/C=C/C(=O)Nc1cc2c(N3CCCc4ccccc43)ncnc2cc1OC | 5.03 µM

* * *

Recorded IC50 by entry
# target-entity: Epidermal growth factor receptor (Homo sapiens)

structure-as-smiles | result-units | IC50
COc1cc2ncnc(N3CCCc4ccccc43)c2cc1NC(=O)/C=C/CN(C)C | nM | 72
CC/C=C/C(=O)Nc1cc2c(N3CCc4ccccc43)ncnc2cc1OC | nM | 17
COc1cc2ncnc(N3CCc4ccccc43)c2cc1NC(=O)/C=C/CN1CCCCC1 | nM | 45.4
C/C=C/C(=O)Nc1cc2c(N3CCc4ccccc43)ncnc2cc1O[C@@H]1CCOC1 | nM | 29
CN(C)C/C=C/C(=O)Nc1cc2c(N3CCc4ccccc43)ncnc2cc1O[C@@H]1CCOC1 | nM | 5
CCC/C=C/C(=O)Nc1cc2c(N3CCCc4ccccc43)ncnc2cc1OC | nM | 33

* * *

# test-protocol: Solubility of the compound in water
# Type: physicochemical
# assay-setup: buffer

structure-as-smiles | solubility
CC/C=C/C(=O)Nc1cc2c(N3CCCc4ccccc43)ncnc2cc1OC | Insoluble
CCC/C=C/C(=O)Nc1cc2c(N3CCCc4ccccc43)ncnc2cc1OC | Insoluble
CC/C=C/C(=O)Nc1cc2c(N3CCCc4ccccc43)ncnc2cc1O[C@@H]1CCOC1 | Insoluble

* * *

Recorded pIC50 by entry
# Tested on: A549
# test-protocol: Antiproliferative activity against human A549 cells after 72 hrs by MTT assay
# Assay type: functional, cell-based
# assay-setup: A549, 72 h
pIC50: −log10 of the molar value.
property-measured: pIC50

structure-as-smiles | property-measured | recorded-value
COc1cc2ncnc(N3CCCc4ccccc43)c2cc1NC(=O)/C=C/CN(C)C | pIC50 | 5.78
CC(C)/C=C/C(=O)Nc1cc2c(N3CCc4ccccc43)ncnc2cc1O[C@@H]1CCOC1 | pIC50 | 5.07
COc1cc2ncnc(N3CCCc4ccccc43)c2cc1NC(=O)/C=C/CN1CCC(CO)CC1 | pIC50 | 5.16
CCN(CC)C/C=C/C(=O)Nc1cc2c(N3CCc4ccccc43)ncnc2cc1O[C@@H]1CCOC1 | pIC50 | 5.28
COc1cc2ncnc(N3CCCc4ccccc43)c2cc1NC(=O)C=C(C)C | pIC50 | 5.27
CCC/C=C/C(=O)Nc1cc2c(N3CCCc4ccccc43)ncnc2cc1OC | pIC50 | 5.74
C=CC(=O)Nc1cc2c(N3CCc4ccccc43)ncnc2cc1OC | pIC50 | 5.25
C=C(C)C(=O)Nc1cc2c(N3CCc4ccccc43)ncnc2cc1O[C@@H]1CCOC1 | pIC50 | 4.78
COc1cc2ncnc(N3CCCc4ccccc43)c2cc1NC(=O)/C=C/CN1CCN(C)CC1 | pIC50 | 5.11
C/C=C/C(=O)Nc1cc2c(N3CCCc4ccccc43)ncnc2cc1O[C@@H]1CCOC1 | pIC50 | 4.97
COc1cc2ncnc(N3CCc4ccccc43)c2cc1NC(=O)/C=C/CN1CCC(CO)CC1 | pIC50 | 5.70
CC(C)=CC(=O)Nc1cc2c(N3CCc4ccccc43)ncnc2cc1O[C@@H]1CCOC1 | pIC50 | 5.44
CC(C)=CC(=O)Nc1cc2c(N3CCCc4ccccc43)ncnc2cc1O[C@@H]1CCOC1 | pIC50 | 5.10
COc1cc2ncnc(N3CCc4ccccc43)c2cc1NC(=O)/C=C/CN1CCN(C)CC1 | pIC50 | 5.27
CN1CCN(C/C=C/C(=O)Nc2cc3c(N4CCCc5ccccc54)ncnc3cc2O[C@@H]2CCOC2)CC1 | pIC50 | 5.23
COc1cc2ncnc(N3CCc4ccccc43)c2cc1NC(=O)/C=C/CN1CCCC1 | pIC50 | 5.92
CN1CCN(C/C=C/C(=O)Nc2cc3c(N4CCc5ccccc54)ncnc3cc2O[C@@H]2CCOC2)CC1 | pIC50 | 5.22
CCC/C=C/C(=O)Nc1cc2c(N3CCc4ccccc43)ncnc2cc1O[C@@H]1CCOC1 | pIC50 | 5.04
O=C(/C=C/CN1CCCCC1)Nc1cc2c(N3CCCc4ccccc43)ncnc2cc1O[C@@H]1CCOC1 | pIC50 | 5.44
COc1cc2ncnc(N3CCCc4ccccc43)c2cc1NC(=O)/C=C/C(C)C | pIC50 | 5.46

* * *

# System: A549
# test-protocol: Antiproliferative activity against human A549 cells after 72 hrs by MTT assay
# Type: functional, cell-based
# assay-setup: A549, 72 h

structure-as-smiles | IC50 / µM
O=C(/C=C/CN1CCCCC1)Nc1cc2c(N3CCc4ccccc43)ncnc2cc1O[C@@H]1CCOC1 | 4.66
CC/C=C/C(=O)Nc1cc2c(N3CCc4ccccc43)ncnc2cc1O[C@@H]1CCOC1 | 10.9
C/C=C/C(=O)Nc1cc2c(N3CCc4ccccc43)ncnc2cc1O[C@@H]1CCOC1 | 2.61
C=C(C)C(=O)Nc1cc2c(N3CCc4ccccc43)ncnc2cc1OC | 7.32
COc1cc2ncnc(N3CCc4ccccc43)c2cc1NC(=O)/C=C/C(C)C | 6.41
CCN(CC)C/C=C/C(=O)Nc1cc2c(N3CCc4ccccc43)ncnc2cc1OC | 1.69
COc1cc2ncnc(N3CCc4ccccc43)c2cc1NC(=O)C=C(C)C | 6.27
CCC/C=C/C(=O)Nc1cc2c(N3CCc4ccccc43)ncnc2cc1OC | 2.92
CC/C=C/C(=O)Nc1cc2c(N3CCCc4ccccc43)ncnc2cc1O[C@@H]1CCOC1 | 14.1
COc1cc2ncnc(N3CCc4ccccc43)c2cc1NC(=O)/C=C/CN1CCCCC1 | 2.54

* * *

Recorded IC50 by entry
# target-entity: Epidermal growth factor receptor (Homo sapiens, UniProt P00533, T790M)
# Sequence (P00533 25-1210 T790M limits assumed): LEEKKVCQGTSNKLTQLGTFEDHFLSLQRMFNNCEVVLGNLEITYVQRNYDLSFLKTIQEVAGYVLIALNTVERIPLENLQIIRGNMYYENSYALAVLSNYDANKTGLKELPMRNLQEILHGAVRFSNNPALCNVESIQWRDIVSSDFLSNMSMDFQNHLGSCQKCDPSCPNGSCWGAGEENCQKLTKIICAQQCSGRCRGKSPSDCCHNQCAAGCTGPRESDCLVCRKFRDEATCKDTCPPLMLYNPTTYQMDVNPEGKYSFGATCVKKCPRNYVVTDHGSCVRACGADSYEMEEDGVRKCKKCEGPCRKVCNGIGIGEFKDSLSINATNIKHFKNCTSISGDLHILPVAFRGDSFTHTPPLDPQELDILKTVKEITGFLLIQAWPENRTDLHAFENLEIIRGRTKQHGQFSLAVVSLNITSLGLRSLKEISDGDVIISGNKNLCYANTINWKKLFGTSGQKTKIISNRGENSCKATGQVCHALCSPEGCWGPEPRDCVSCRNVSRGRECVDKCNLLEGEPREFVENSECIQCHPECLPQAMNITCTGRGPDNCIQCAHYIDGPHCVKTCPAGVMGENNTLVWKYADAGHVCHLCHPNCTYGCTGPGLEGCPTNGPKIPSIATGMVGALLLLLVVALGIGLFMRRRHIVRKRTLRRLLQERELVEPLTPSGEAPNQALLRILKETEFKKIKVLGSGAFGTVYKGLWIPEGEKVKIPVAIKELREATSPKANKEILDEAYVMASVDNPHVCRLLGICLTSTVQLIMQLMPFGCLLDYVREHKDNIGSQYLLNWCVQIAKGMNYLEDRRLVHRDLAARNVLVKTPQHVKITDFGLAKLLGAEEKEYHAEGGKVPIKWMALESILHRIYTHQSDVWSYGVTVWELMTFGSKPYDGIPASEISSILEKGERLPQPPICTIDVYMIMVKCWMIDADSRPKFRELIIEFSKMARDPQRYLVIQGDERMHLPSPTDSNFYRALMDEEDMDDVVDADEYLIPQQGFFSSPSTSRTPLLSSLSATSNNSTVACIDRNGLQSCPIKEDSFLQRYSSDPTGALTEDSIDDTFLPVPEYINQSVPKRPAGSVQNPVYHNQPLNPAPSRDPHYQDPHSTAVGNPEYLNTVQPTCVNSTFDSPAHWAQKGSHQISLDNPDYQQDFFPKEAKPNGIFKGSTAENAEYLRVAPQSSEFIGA
# test-protocol: Inhibition of wild type EGFR T790M mutant (unknown origin) using FAM-labeled peptide substrate after 10 mins by mobility shift assay
property-measured: IC50

structure-as-smiles | property-measured | recorded-value
COc1cc2ncnc(N3CCCc4ccccc43)c2cc1NC(=O)/C=C/CN(C)C | IC50 | 107 nM
C/C=C/C(=O)Nc1cc2c(N3CCc4ccccc43)ncnc2cc1O[C@@H]1CCOC1 | IC50 | 192 nM
CN(C)C/C=C/C(=O)Nc1cc2c(N3CCc4ccccc43)ncnc2cc1O[C@@H]1CCOC1 | IC50 | 26 nM
